Would you kindly list solubility kinetic for each of these molecules?
Conditions: buffer; pH 7.4; 200.0 µM
Answers are plain numbers, in µg/mL.

Below, each entry is followed by its recorded solubility kinetic result.
- Cc1ccccc1OCCN1CCCC1: 19.5
- O=C(NC(=S)NCCc1ccccc1)c1cccc(Cl)c1: 0.6
- COc1cccc(NC(=O)CN(C)C(C)C(=O)N2CCCC2)c1 (stereo not given): 44.4

Quick request: solubility kinetic for each listed item, please.
1. CC(=O)c1c(C)[nH]c(C(=O)Nc2nc(C)cs2)c1C
2. CCN(CC)c1cc(Cl)nc(N)n1
3. CCC1CCC(N2CCN(c3ccc([N+](=O)[O-])cc3)CC2)CC1 (stereo not given)
4. S=C(NCc1ccccc1)NCc1ccccc1Cl
5. Cc1ccc(C(=O)NC2CCc3ccccc3C2=O)cc1 (stereo not given)
6. Cc1c(Cl)cccc1NC(=O)CNC(=O)c1ccc2c(c1)OCCO2
7. COCCOc1ccc(C(F)(F)F)cc1NC(=O)CN1C(=O)NC2(CCCc3ccccc32)C1=O (stereo not given)

4.1
25.9
8.9
28.4
5.8
18
16.8

Quick request: solubility kinetic for each listed item, please.
1. COc1ccc(S(=O)(=O)N2CCCCC2)cc1NS(=O)(=O)c1ccc(CNC(C)=O)cc1
2. O=C(CN1CCc2ccccc21)NC(=O)NC1CCCCC1
3. COc1ccc(S(=O)(=O)N2CCOCC2)c2ccccc12
4. COc1cccc(OC)c1C(=O)Nc1cccc2c1CCCC2

1. 62.5
2. 34.8
3. 40.6
4. 41.1

###

Would you kindly list solubility kinetic for each of these compounds?
Details: buffer; pH 7.4; 200.0 µM

Below, each entry is followed by its recorded solubility kinetic result.
* CCC(=O)c1ccc(OCC(=O)NC2CCN(Cc3ccccc3)CC2)cc1 | > 57.1 µg/mL
* O=C(O)/C=C/C(=O)Nc1ccc2c(c1)C(=O)c1ccccc1C2=O | > 48.2 µg/mL

Quick request: solubility kinetic for each listed item, please.
1. Oc1ccc2ccccc2c1C=Nc1ccccc1
2. CCOc1ccc(NC(=S)NCc2ccc3[nH]c(C)cc3c2)cc1

1. < 0.5 µg/mL
2. 11.4 µg/mL

Quick request: solubility kinetic for each listed item, please.
1. CC(C)C(=O)Nc1ccc(-c2nc3ncccc3o2)cc1
2. O=C(NCCc1csc(-c2cccc(F)c2)n1)c1ccco1
3. Cc1cc(N2Cc3ccccc3C2)ccc1C=O
4. O=C(O)c1ccccc1NCc1ccsc1
5. CC(=O)Nc1nc2c(s1)C(=O)NCC(C)(C)C2
6. COC(=O)c1ccc(COC(=O)CNC(=O)CNC(=O)c2ccc(OC)cc2)cc1
7. Cc1ccccc1OC(C)C(=O)NCc1cccnc1 (configuration not stated)
8. CC(C)CC(N(C)C)C1(c2ccc(Cl)cc2)CCC1.Cl (configuration not stated)

22.2 µg/mL
> 47.5 µg/mL
7.1 µg/mL
> 35 µg/mL
> 38 µg/mL
16.1 µg/mL
38.1 µg/mL
< 0.7 µg/mL

###

Conditions: buffer; pH 7.4; 200.0 µM
# label = bin(measured solubility kinetic), where bins are low value = under 6 µg/mL, medium value = from 6 µg/mL up to 30 µg/mL, high value = 30 µg/mL and over

• O=C(COc1ccccc1[N+](=O)[O-])Nc1cccnc1 = medium value
• CC1CC1C(=O)OCC(=O)NC(=O)c1ccccc1 (stereo not given) = high value
• COc1ccc(C2Nc3ccccc3NC3=C2C(=O)CC(C)(C)C3)cc1O (stereo not given) = high value
• C=CCNC(=O)NC(=O)CSc1nnc(C(F)(F)F)n1C = high value

Form field 'band' for Cc1ccc(-n2c(C)c(C)c3c(NCCN(C)C)ncnc32)cc1 high value

###

Conditions: buffer; pH 7.4; 200.0 µM
measured property: solubility kinetic (µg/mL)
One number for each entry, in µg/mL.

Below, each entry is followed by its recorded solubility kinetic result.
• N#Cc1ccc(COc2cccnc2[N+](=O)[O-])cc1 = 6.3
• CCC(C)NC(=O)N1c2ccccc2Sc2ccccc21 (configuration not stated) = 28
• CC1CCCC(NC(=O)COC(=O)COc2ccc(Br)cc2)C1C (configuration not stated) = 11.6
• FC(F)(F)c1cccc(-c2nc(-c3ccncc3)no2)c1 = 0.4

Now consider the entry below.
Consider the compound Cc1ccc(NC(=S)N(Cc2ccccc2)Cc2cccs2)c(C)c1 . State its measured solubility kinetic. 0.8

###

Would you kindly list solubility kinetic for each of these compounds?
Details: buffer; pH 7.4; 200.0 µM

- Cc1ccnc(NC(=O)c2ccc(C(=O)c3ccccc3)cc2)c1: 25.8 µg/mL
- CCC(NC(=S)NCc1ccc(F)cc1)c1ccc(C)cc1 (stereo unspecified): 0.8 µg/mL
- Cc1nc2ccc(C(=O)Nc3ccccc3Cl)cc2s1: 14.2 µg/mL

Quick request: solubility kinetic for each listed item, please.
1. O=C(Oc1ccccc1C(=O)N1CCOCC1)c1ccc(F)cc1
2. O=C1NC(=Nc2cccc([N+](=O)[O-])c2)SC1(CO)CO
3. C#CCOC(=O)Nc1cnccc1C(F)(F)F

45.1 µg/mL
41.2 µg/mL
> 36.6 µg/mL

###

Details: buffer; pH 7.4; 200.0 µM
measured property: solubility kinetic (µg/mL)
Numbers only, in µg/mL.

Below, each entry is followed by its recorded solubility kinetic result.
- CC1CN(Cc2cnc(Cl)s2)CC(C)O1 (configuration not stated): 27.9
- COc1cc(C(=O)NCC2CCCCC2)cc(OC)c1OC: 12.8
- N#Cc1ccc(C2N=C(c3ccccc3)NO2)cc1 (configuration not stated): 15.3

Quick request: solubility kinetic for each listed item, please.
1. COc1ccc(CN=C(C#N)C2=C(O)c3ccccc3C2=O)cc1
2. C=CCn1c(O)c(C(C)=Nc2cccc(C(F)(F)F)c2)c(=O)[nH]c1=O

1. 0.8
2. 4

Consider the compound N#CCCOC1(C#CCN2CCCC2)CCCCC1 . State its measured solubility kinetic. 32.2

###

Settings: buffer; pH 7.4; 200.0 µM
measured property: solubility kinetic

Below, each entry is followed by its recorded solubility kinetic result.
* CCNC(=S)N1CCN(S(=O)(=O)c2ccc(Cl)s2)CC1 | 31.4 µg/mL
* N#CCCN1C(=O)C2(OCCO2)c2ccccc21 | > 36.6 µg/mL
* Cn1cc(C(=O)Nc2ccc(C#N)cc2)c2ccccc2c1=O | < 0.2 µg/mL
* CN(CC(=O)Nc1cccc(F)c1)CC(=O)Nc1ccccc1[N+](=O)[O-] | 49.7 µg/mL
* COc1ccc(Cn2cnc3c4cc(F)ccc4n(C)c3c2=O)cc1 | < 0.2 µg/mL
* O=C(CSc1nc2ccccc2c(=O)n1CCCN1CCOCC1)Nc1ccc(Br)cc1 | 5.3 µg/mL
* Cc1cc(=O)[nH]c(SCC(=O)Nc2nonc2C)n1 | > 42.2 µg/mL
* CC(NC(=O)CN1CCN(Cc2cccc(F)c2)CC1)c1ccccc1 (stereo unspecified) | > 53.3 µg/mL

Quick request: solubility kinetic for each listed item, please.
1. CC(C)[C@H](Nc1ccc(C(F)(F)F)cc1[N+](=O)[O-])C(=O)O.[Cl-]
2. CCc1nc2ccccc2c(C(=O)OCc2nc3ccccc3c(=O)[nH]2)c1C
3. CC1CCCN(C(=O)CCNC(=O)c2ccccc2Cl)C1 (stereo unspecified)

1: > 51.3 µg/mL; 2: 14.5 µg/mL; 3: > 46.3 µg/mL

###

Settings: buffer; pH 7.4; 200.0 µM
measured property: solubility kinetic (µg/mL)
Answers are plain numbers, in µg/mL.

Below, each entry is followed by its recorded solubility kinetic result.
- O=C(COC(=O)c1cccc(OC(F)F)c1)NC1CCCC1: 28.2
- O=C(OCC(=O)N1CCCCCC1)c1ccc([N+](=O)[O-])cc1Cl: 50
- O=C(CN1CCN(S(=O)(=O)c2ccccc2F)CC1)N1CCc2ccccc2C1: 12.8
- CCC(=O)Nc1ccc(NC(=O)CCc2ccccc2)cn1: 44.5
- COc1ccc(CCNc2nc(-c3ccncc3)cs2)cc1OC: 35.9

Quick request: solubility kinetic for each listed item, please.
1. Cc1ccc(OCC(=O)Nc2cc(C(C)(C)C)on2)cc1C
2. O=C(Nc1ccccc1F)NC1CCCCCCC1
3. Cc1cc(=O)[nH]c(SCC(=O)N2C(C)CCCC2C)n1 (centres undefined)
4. NS(=O)(=O)c1ccc(NC(=O)Nc2cccc3ccccc23)cc1
5. CN(CC(=O)Nc1ccc(F)c(F)c1F)C(=O)c1ccc(N2CCCC2=O)cc1

1. 3.9
2. 6.9
3. 38.3
4. 2.1
5. 53.4

Quick request: solubility kinetic for each listed item, please.
1. Cc1cc(=O)oc2cc(OCCC[n+]3ccccc3)ccc12.[Br-]
2. CCOC(=O)c1cccc(NC(=O)c2ccccc2C)c1
3. O=C(Cn1ccnc1)c1ccc(Cl)cc1
4. CCCNC(=O)COC(=O)/C(C#N)=C/c1cc(C)n(CCC)c1C
5. CCN(C1CCS(=O)(=O)C1)S(=O)(=O)c1ccc2ccccc2c1 (centres undefined)
6. O=C(NCCc1ccccc1)c1cc([N+](=O)[O-])ccc1N1CCOCC1
7. CCOc1ccccc1NC(=O)NC(C)c1ccc2c(c1)OCO2 (centres undefined)
8. CC(C)CN1CCN(Cc2ccccc2C(F)(F)F)CC1CCO (centres undefined)

1: 53.6; 2: 33.1; 3: 31.5; 4: 1.6; 5: 15.9; 6: 53.2; 7: 3.4; 8: 48.7
